Molecular target: IRAK4 (Homo sapiens)
Sequence (Q9NWZ3 1-460): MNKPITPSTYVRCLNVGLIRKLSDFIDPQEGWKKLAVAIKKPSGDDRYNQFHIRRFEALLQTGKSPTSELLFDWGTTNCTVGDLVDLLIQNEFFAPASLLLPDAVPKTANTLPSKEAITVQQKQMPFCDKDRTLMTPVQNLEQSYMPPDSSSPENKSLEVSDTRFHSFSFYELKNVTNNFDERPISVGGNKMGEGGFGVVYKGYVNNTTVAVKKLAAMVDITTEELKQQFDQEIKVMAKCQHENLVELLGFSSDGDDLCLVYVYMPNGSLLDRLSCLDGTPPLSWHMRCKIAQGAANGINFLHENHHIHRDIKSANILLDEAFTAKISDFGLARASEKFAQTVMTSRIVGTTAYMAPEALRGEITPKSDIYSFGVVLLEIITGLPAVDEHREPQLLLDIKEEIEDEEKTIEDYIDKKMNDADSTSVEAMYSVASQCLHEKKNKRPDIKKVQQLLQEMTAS
Test: biochemical
metric.name: pIC50
Please express pIC50 as -log10 of the molar concentration.

INPUT: Write down pIC50 measured for item CC(C)Oc1cc2nc([C@@]34CC[C@@](C)(C3)OC4)cn2cc1C(=O)Nc1cnn2cccnc12 (single isomer, unassigned) [Example 615]
OUTPUT: 9.70

INPUT: For the compound COc1nscc1NC(=O)c1cn2cc(C34CCC(C)(C3)OC4)nc2cc1OC(C)C (stereo not shown) [Example 513] , give its reported pIC50.
OUTPUT: 9.52

INPUT: Using the record for COc1cccc(NC(=O)c2cn3cc(C4CCOCC4)nc3cc2OCCC2CCOC2)n1 (stereo not shown) [Example 435] , state its measured pIC50.
OUTPUT: 8.29

INPUT: Give reported pIC50 value for CC12CC(c3cn4cc(C(=O)Nc5cccn(C(F)F)c5=O)c(OC5CCCC5)cc4n3)(CO1)C2 [Example 457]
OUTPUT: 9.70

These entries and their values trace back to patent US20230087118A1.
